# run description: chemical genetic growth profiling, strain panel (AID 1159580);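 also: tested at 20 µM; growth read once vehicle control cultures reached saturation at 30 °C; 1 = growth at the plate median or of vehicle wells; lower values mean less growth of the strain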
# condition notes: S. cerevisiae deletion strains, growth OD, locus YJL095W, strain BCK1 (second series), stronger effect = lower value
In all, about 5,500 compounds went through this assay and about 2,000 (36%) were called active. Roughly 18% stayed inconclusive and do not appear here. The list shows a part of the results.
Reported normalized growth by item:
Output: the number by itself.

COC(=O)C1=COC(OC2OC(CO)C(O)C(O)C2O)C2C(C)CC(=O)C12 (configuration not stated) ... 1.03
C=C[C@@](C)(O)CCC1C(=C)C[C@H](O)C2C(C)(C)CCCC12C (some centres not stated) ... 0.992
CCC(C)C(=O)O[C@@H]1C[C@@]2(C)[C@H](c3ccoc3)OC(=O)CC23OC2(C)O[C@]14[C@]1(C)[C@@H](CC(=O)OC)C5(C)CC1(O)[C@](O)(C5OC(=O)C1(C)OC1C)[C@@H](OC(C)=O)[C@]34O2 (some centres not stated) ... 1
Clc1ccc(C(c2ccc(Cl)cc2)C(Cl)(Cl)Cl)cc1 ... 1.01
O=C(O)CCCc1ccccc1 ... 0.989
Clc1ccc(C(OCCN2CCCCC2)c2ccccc2)cc1 (configuration not stated) ... 1.03
CC[C@@H]1C=C/C=C/C[C@H](C)[C@@H](O)[C@](C)(O)C(=O)[C@H](C)[C@@H](O)[C@H](C)C(=O)[C@H](C)[C@@H](O)[C@H](C)/C=C/C(=O)O[C@H]2[C@@H](C)[C@@H](CC1)O[C@@]1(CC[C@@H](C)[C@@H](C[C@H](C)O)O1)[C@@H]2C ... 1.02
C=CCc1ccc(O)c(OC)c1 ... 0.992
COc1ccc([C@H]2Oc3c(I)c(OC)cc(OC)c3C[C@@H]2O)cc1OC ... 1.02
O=C(O[C@@H]1Cc2c(O)cc(O)cc2O[C@@H]1c1cc(O)c(O)c(O)c1)c1cc(O)c(O)c(O)c1 ... 0.882

Ask | Given the compound COc1ccc(C(c2ccc(OC)cc2)C(Cl)(Cl)Cl)cc1 , what is its reported normalized growth?
Reply | 1.02
